- assaySystem: T1, recombinant human PD-L2 (human PD-L2 antigen) (human, UniProt Q9BQ51 20-219, limits assumed)
- T1 construct: The Biacore analyte and the ELISA antigen are only called human PD-L2 antigen / recombinant hPD-L2; Whole entry named; also called hPD-L2; recombinant hPD-L2
- T1 sequence (looked up): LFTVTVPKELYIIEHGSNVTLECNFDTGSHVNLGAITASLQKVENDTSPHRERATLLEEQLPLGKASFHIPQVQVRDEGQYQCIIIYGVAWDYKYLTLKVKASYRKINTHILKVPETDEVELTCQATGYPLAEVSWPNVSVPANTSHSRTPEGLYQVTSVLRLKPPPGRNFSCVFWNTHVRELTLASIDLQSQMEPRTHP
- testMethodNotes: SPR (Biacore 8K), single cycle kinetics, antibody in culture supernatant, human PD-L2 antigen
Reported pKd by item:
Here pKd is given on a logarithmic scale as minus log10 of the concentration in mol/L.

| binder | pKd |
| --- | --- |
| VH7/VK3 (antibody, V domains shown, hIgG1 backbone, CHO expressed) VH: QVQLVQSGAELKKPGSSVKVSCKASGYAFSNYFIEWVKQPPGKGLEWIGLNIPGSGGSNYAEKFKGRATITADKSTSTAYMELSSLRSEDTAVYYCARRRLPPDWYFDVWGQGTTVTVSS VL: DVVMTQSPLSLPVTLGQPASISCRSSQSLVHSGGNTYLHWYQQKPGQPPKLLIYKVSNRFSGVPDRFSGSGSGTDFTLKISRVEAEDVGVYFCSQSTHVPWTFGGGTKVEIK | 9.65 |

(Q) Which value of pKd has been reported for VH3/VK2 (antibody, V domains shown, hIgG1 backbone, CHO expressed) VH: QVQLVQSGAEVKKPGSSVKVSCKASGYAFSNYFIEWVKQPPGKGLEWIGLNIPGSGGSNYAEKFKGRVTITADKSTSTAYMELSSLRSEDSAVYFCARRRLPPDWYFDVWGQGTTVTVSS VL: DVVMTQSPLSLPVTLGQPASISCRSSQSLVHSDGNTYLHWYQQKPGQPPKLLIYKVSNRFSGVPDRFSGSGSGTDFTLKISRVEAEDVGVYYCSQSTHVPWTFGGGTKVEIK in the records?
(A) 10.22
